These entries and their values trace back to ChEMBL document CHEMBL3124771.

# method_description: Selectivity index, ratio of IC50 for African green monkey Vero cells to MIC for Mycobacterium tuberculosis H37Rv
# Type: toxicity, cell-based
# recorded_conditions: read-out: Selectivity Index
measurement_type: selectivity ratio

structure_smiles	selectivity ratio
O=C(/C=C/c1ccc([N+](=O)[O-])cc1)Nc1ccc(N2CCN(C(=O)c3ccncc3)CC2)c(F)c1	> 10
O=C(/C=C/c1ccccc1)Nc1ccc(N2CCN(C(=O)c3ccccc3C(F)(F)F)CC2)c(F)c1	> 40
O=C(/C=C/c1ccc([N+](=O)[O-])cc1)Nc1ccc(N2CCN(C(=O)c3ccc(F)cc3)CC2)cc1	> 10
CN1CCN(c2ccc(NC(=O)/C=C/c3ccccc3)cc2)CC1	> 10

# input for lookup
Input CCN1CCN(c2ccc(NC(=O)/C=C/c3ccccc3)cc2F)CC1 . Output selectivity ratio: > 10
